assay: Pharmacokinetics in mice after single IV and PO administration (LC-MS/MS); format: in vivo, male ICR mice; conditions: mouse, in vivo; ICR mice, PO 30 mg/kg, 0.5% methylcellulose (pH = 4.91); read-out: PO AUC(0-t)
assay-metric: AUC(0-t) (ng·h/mL)
Field: numeric (ng·h/mL). Do not append units.

Give the measured AUC(0-t) of CCN(C(=O)c1cc(F)ccc1N1CCN([C@@H]2CCN([C@H](CCCN(C)CCOC)C(C)C)C2)c2ncncc21)C(C)C .
1100

###

target: hERG potassium channel (Homo sapiens, UniProt Q12809); construct: expressed in transfected cells; host or cells: HEK293 (HEK-293-hERG); test: Inhibition of hERG current, manual whole-cell patch-clamp in HEK293 cells stably transfected with hERG; type: cell-based
Sequence (Q12809 whole entry): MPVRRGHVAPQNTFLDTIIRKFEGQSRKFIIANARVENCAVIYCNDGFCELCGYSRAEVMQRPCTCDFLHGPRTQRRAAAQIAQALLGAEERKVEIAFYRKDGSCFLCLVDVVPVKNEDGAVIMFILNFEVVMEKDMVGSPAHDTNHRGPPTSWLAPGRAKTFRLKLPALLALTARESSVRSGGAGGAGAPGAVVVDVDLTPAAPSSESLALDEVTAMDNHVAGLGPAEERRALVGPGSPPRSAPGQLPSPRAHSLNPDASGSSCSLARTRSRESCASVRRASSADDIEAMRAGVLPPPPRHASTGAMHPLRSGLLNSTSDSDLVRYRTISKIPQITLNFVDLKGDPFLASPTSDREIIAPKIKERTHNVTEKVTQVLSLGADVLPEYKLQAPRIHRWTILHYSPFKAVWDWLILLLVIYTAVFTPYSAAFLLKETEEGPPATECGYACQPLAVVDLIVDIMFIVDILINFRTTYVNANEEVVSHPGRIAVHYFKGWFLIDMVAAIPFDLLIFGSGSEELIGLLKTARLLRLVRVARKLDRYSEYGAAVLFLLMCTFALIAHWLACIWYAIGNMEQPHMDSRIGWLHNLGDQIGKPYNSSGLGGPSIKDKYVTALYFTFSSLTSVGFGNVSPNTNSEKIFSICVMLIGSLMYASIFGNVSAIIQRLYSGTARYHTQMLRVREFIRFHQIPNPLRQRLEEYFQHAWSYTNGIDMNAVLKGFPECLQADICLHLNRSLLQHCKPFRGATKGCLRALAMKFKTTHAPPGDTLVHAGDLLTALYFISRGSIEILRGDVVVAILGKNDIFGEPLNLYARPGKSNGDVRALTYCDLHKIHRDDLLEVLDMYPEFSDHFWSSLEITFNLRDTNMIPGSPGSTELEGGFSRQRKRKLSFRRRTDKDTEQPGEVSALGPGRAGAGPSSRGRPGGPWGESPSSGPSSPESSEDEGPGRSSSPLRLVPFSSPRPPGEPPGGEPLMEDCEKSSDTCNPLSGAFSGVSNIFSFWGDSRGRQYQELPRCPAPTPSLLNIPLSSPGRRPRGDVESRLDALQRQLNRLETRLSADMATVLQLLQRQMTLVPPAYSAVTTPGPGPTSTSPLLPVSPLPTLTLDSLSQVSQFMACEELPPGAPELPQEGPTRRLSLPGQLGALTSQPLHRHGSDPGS
pIC50: −log10 of the molar value.
assay-metric: pIC50

Give the measured pIC50 of CCN(C(=O)c1cc(F)ccc1N1CCN([C@@H]2CCN([C@H](CCCN(C)CCOC)C(C)C)C2)c2ncncc21)C(C)C .
< 4.52

###

assay: Pharmacokinetics in mice after single IV and PO administration (LC-MS/MS); format: in vivo, male ICR mice; conditions: mouse, in vivo; ICR mice, PO 30 mg/kg, 0.5% methylcellulose (pH = 4.91); read-out: PO Cmax
assay-metric: Cmax (ng/mL)
Field: numeric (ng/mL). Do not append units.

Give the measured Cmax of CCN(C(=O)c1cc(F)ccc1N1CCN([C@@H]2CCN([C@H](CCCN(C)CCOC)C(C)C)C2)c2ncncc21)C(C)C .
293

###

assay: Pharmacokinetics in rats after single IV and PO administration (LC-MS/MS); format: in vivo, male SD rats; conditions: rat, in vivo; SD rats, PO 30 mg/kg, 0.5% MC (pH 5.03); read-out: PO t1/2 (converted)
assay-metric: half-life (h)
Field: numeric (h). Do not append units.

Give the measured half-life of CCN(C(=O)c1cc(F)ccc1N1CCN([C@@H]2CCN([C@H](CCCN(C)CCOC)C(C)C)C2)c2ncncc21)C(C)C .
21.3

###

experiment: Pharmacokinetics in rats after single IV and PO administration (LC-MS/MS); assay type: in vivo, male SD rats; settings: male, rat, plasma; SD rats, PO; comparative compounds, dose 10 mg/kg in 0.5% MC according to Table 3; read-out: PO t1/2 (converted)
assay-metric: half-life (h)
Field: numeric (h). Do not append units.

Please review the following examples before continuing.
CCN(C(=O)c1cc(F)ccc1N1CCN(C2CCN(Cc3ccc4c(cc(C#N)n4CC4COC4)c3C)CC2)c2ncncc21)C(C)C; 1.26
CCN(C(=O)c1cc(F)ccc1N1CCN(C2CCN(Cc3ccc4c(cc(C#N)n4CC4CNC4)c3C)CC2)c2ncncc21)C(C)C; 5.12
CCN(C(=O)c1cc(F)ccc1N1CCN(C2CCN(Cc3ccc4[nH]c(C#N)cc4c3C)CC2)c2ncncc21)C(C)C; 2.29

Please look at the following compound next.
Give the measured half-life of CCN(C(=O)c1cc(F)ccc1N1CCN(C2CCN(Cc3ccc4c(cc(C#N)n4C[C@@H]4CCNC4)c3C)CC2)c2ncncc21)C(C)C .
1.8

###

experiment: Pharmacokinetics in rats after single IV and PO administration (LC-MS/MS); assay type: in vivo, male SD rats; conditions: rat, in vivo; SD rats, IV 3 mg/kg; read-out: IV Cmax
assay-metric: Cmax (ng/mL)
Field: numeric (ng/mL). Do not append units.

Give the measured Cmax of CCN(C(=O)c1cc(F)ccc1N1CCN([C@@H]2CCN([C@H](CCCN(C)CCOC)C(C)C)C2)c2ncncc21)C(C)C .
193

###

target: hERG potassium channel (Homo sapiens, UniProt Q12809); construct: expressed in transfected cells; host or cells: HEK293 (HEK-293-hERG); assay: Inhibition of hERG current, manual whole-cell patch-clamp in HEK293 cells stably transfected with hERG; format: cell-based; details: HEK293-hERG cells, manual patch-clamp, 0.3-30 µmol/L, room temperature; read-out: IC50 (hERG tail current)
assay-metric: pIC50
// pIC50 is dimensionless: -log10 of concentration (M)

Give the measured pIC50 of CCN(C(=O)c1cc(F)ccc1Oc1cncnc1N1CC2(CCN(C[C@H]3CC[C@H](NS(=O)(=O)CC)CC3)CC2)C1)C(C)C .
5.12

###

system: MV-4-11 cells; experiment: Antiproliferative activity, CellTiter-Glo, 7 days (Test Example 2), MV-4-11; type: cell-based; details: Homo sapiens, MV4-11, 168 h, 7 days incubation
Let's look at some molecules and their measured IC50.
Field: numeric (nM). Do not append units.

CNc1nc(NC2CCN(Cc3ccc4c(cc(C#N)n4C[C@H](C)N4CCN(S(C)(=O)=O)CC4)c3C)CC2)c2cc(CC(F)(F)F)sc2n1; 14.4
CCN(C(=O)c1cc(F)ccc1Oc1cncnc1N1CC2(CCN(C[C@H]3CC[C@H](NS(=O)(=O)CC)CC3)CC2)C1)C(C)C; 14.4

Please look at the following molecule next.
Give the measured IC50 of CCN(C(=O)c1cc(F)ccc1N1CCN([C@@H]2CCN([C@H](CCCN(C)CCOC)C(C)C)C2)c2ncncc21)C(C)C .
10.1

###

target: Menin-T349M (Homo sapiens, UniProt O00255, T344M); experiment: Fluorescence polarization assay of Menin binding to MLL peptide, T349M mutant; conditions: FP, 8 nM Menin, 4 nM MLL peptide
Sequence (O00255 1-615 isoform O00255-1 T349M): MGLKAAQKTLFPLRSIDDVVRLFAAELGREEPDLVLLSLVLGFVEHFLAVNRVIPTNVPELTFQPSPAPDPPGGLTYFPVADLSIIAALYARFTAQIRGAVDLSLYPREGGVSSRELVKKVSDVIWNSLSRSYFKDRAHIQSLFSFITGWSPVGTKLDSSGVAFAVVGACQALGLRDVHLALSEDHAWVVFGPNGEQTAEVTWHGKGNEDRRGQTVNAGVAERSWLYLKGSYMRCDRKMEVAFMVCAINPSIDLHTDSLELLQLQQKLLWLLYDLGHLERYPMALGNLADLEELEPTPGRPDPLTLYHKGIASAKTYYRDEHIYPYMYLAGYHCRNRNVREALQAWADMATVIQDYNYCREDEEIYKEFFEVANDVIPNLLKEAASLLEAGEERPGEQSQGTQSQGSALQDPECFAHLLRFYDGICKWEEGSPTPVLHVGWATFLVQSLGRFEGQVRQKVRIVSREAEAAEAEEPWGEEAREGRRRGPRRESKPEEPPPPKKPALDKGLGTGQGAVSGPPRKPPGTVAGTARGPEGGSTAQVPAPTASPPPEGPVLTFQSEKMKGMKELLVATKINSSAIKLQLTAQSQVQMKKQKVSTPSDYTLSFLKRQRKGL
assay-metric: pIC50
// pIC50 is dimensionless: -log10 of concentration (M)

CCN(C(=O)c1cc(F)ccc1Oc1cncnc1N1CC2(CCN(C[C@H]3CC[C@H](NS(=O)(=O)CC)CC3)CC2)C1)C(C)C; 6.57

Please look at the following compound next.
Give the measured pIC50 of CCN(C(=O)c1cc(F)ccc1N1CCN([C@@H]2CCN([C@H](CCCN(C)CCOC)C(C)C)C2)c2ncncc21)C(C)C .
7.33

###

Let's look at some compounds and their measured IC50.
molecular target: Menin-M327I (Homo sapiens, UniProt O00255, M322I); assay: Fluorescence polarization assay of Menin binding to MLL peptide, M327I mutant; conditions: FP, 8 nM Menin, 4 nM MLL peptide
Sequence (O00255 1-615 isoform O00255-1 M327I): as the sequence (O00255 1-615 isoform O00255-1 T349M) above, with M327I, M349T counted along it
Field: numeric (nM). Do not append units.

CCN(C(=O)c1cc(F)ccc1N1CCN([C@@H]2CCN([C@H](CCCN(C)CCOC)C(C)C)C2)c2ncncc21)C(C)C [Example 3]; 40.7

Please look at the following compound next.
Give the measured IC50 of CCN(C(=O)c1cc(F)ccc1Oc1cncnc1N1CC2(CCN(C[C@H]3CC[C@H](NS(=O)(=O)CC)CC3)CC2)C1)C(C)C [SNDX-5613, revumenib] .
928

###

Let's look at some compounds and their measured AUC(0-t).
experiment: Pharmacokinetics in rats after single IV and PO administration (LC-MS/MS); format: in vivo, male SD rats; conditions: male, rat, plasma; SD rats, IV; comparative compounds, dose 1 mg/kg according to Table 3; read-out: IV AUC(0-t)
Express the reported value numerically, then name its unit.

Please review the following examples before continuing.
CCN(C(=O)c1cc(F)ccc1N1CCN(C2CCN(Cc3ccc4[nH]c(C#N)cc4c3C)CC2)c2ncncc21)C(C)C; 264 ng·h/mL
CCN(C(=O)c1cc(F)ccc1N1CCN(C2CCN(Cc3ccc4c(cc(C#N)n4CC4CNC4)c3C)CC2)c2ncncc21)C(C)C; 169 ng·h/mL
CCN(C(=O)c1cc(F)ccc1N1CCN(C2CCN(Cc3ccc4c(cc(C#N)n4C[C@@H]4CCNC4)c3C)CC2)c2ncncc21)C(C)C; 85.7 ng·h/mL

Please look at the following compound next.
Give the measured AUC(0-t) of CCN(C(=O)c1cc(F)ccc1N1CCN(C2CCN(Cc3ccc4c(cc(C#N)n4CC4COC4)c3C)CC2)c2ncncc21)C(C)C .
16.9 ng·h/mL

###

assay: Pharmacokinetics in rats after single IV and PO administration (LC-MS/MS); assay type: in vivo, male SD rats; conditions: male, rat, plasma; SD rats, IV; comparative compounds, dose 1 mg/kg according to Table 3; read-out: IV Cmax
Let's look at some compounds and their measured Cmax.
Field: numeric (ng/mL). Do not append units.

Please review the following examples before continuing.
CCN(C(=O)c1cc(F)ccc1N1CCN(C2CCN(Cc3ccc4c(cc(C#N)n4CC4COC4)c3C)CC2)c2ncncc21)C(C)C [Comparative Comp. 10]; 16.2
CCN(C(=O)c1cc(F)ccc1N1CCN(C2CCN(Cc3ccc4c(cc(C#N)n4C[C@@H]4CCNC4)c3C)CC2)c2ncncc21)C(C)C [Comparative Comp. 8]; 271
CCN(C(=O)c1cc(F)ccc1N1CCN(C2CCN(Cc3ccc4[nH]c(C#N)cc4c3C)CC2)c2ncncc21)C(C)C [Comparative Comp. 7]; 152

Give the measured Cmax of CCN(C(=O)c1cc(F)ccc1N1CCN(C2CCN(Cc3ccc4c(cc(C#N)n4CC4CNC4)c3C)CC2)c2ncncc21)C(C)C [Comparative Comp. 9] .
376
